Value source: the OligoGym collection

- TARGET UNDER TEST: STK24
- EXPERIMENT SUMMARY: pooled miR-30 sensor sort-seq; sequence = guide strand; further: reference of the scale not given here
- APPLIED CONDITIONS: shRNA
Everything with sensor-assay potency score (higher = more potent) lower than -0.7 is Not satisfied; everything else, including exactly -0.7, is Satisfied.

Query: Confirm if sensor-assay potency score (higher = more potent) reported for the sequence TTTCCTTCCAACGTCGGTGGGT is -0.7 or above.
Result: Satisfied

Query: Next: TTTCTCTTAATATAGTAGCGAT
Result: Not satisfied

Query: Do the same for TAATATAGTAGCGATCTGGGTT please
Result: Satisfied

Query: And for TATACAAATCTGTACACCCATC ?
Result: Not satisfied

Query: Continue with TACATATGGACTGTCACACTGA
Result: Satisfied

Query: How about TTCTAATAGATCTAGTGCGGAG ?
Result: Not satisfied

Query: Proceed to TTTCATCTTATTTCTGTCCAAG
Result: Not satisfied

###

- TARGET UNDER TEST: BEST2
- EXPERIMENT SUMMARY: pooled miR-30 sensor sort-seq; sequence = guide strand
- APPLIED CONDITIONS: shRNA
For each entry below, report its sensor-assay potency score (higher = more potent) value.
// no unit, no text: just the number

Query: Requested read-out: sensor-assay potency score (higher = more potent). Entry: TTCAGGTTTTCAAACTTCTTGC
Result: -0.208

Query: Query TAGCGCATGAGTGTGCGCCGGT next
Result: -0.558

Query: Further, for TTAAGGGCGCTGTTGTCGCGGA ?
Result: -1.06

Query: // same read-out, input: AACTTCTTGCGCTCCTCGCGGG
Result: -0.5

Query: Next: TGGAACTGCATGTCTTCTTTGG
Result: -0.925

Query: Consider next the sequence AAGCGCTTGAACACCGCGGTGC in the same way.
Result: 0.183

Query: Record: TACGCTAATCCAGTCATAGTGA
Result: -0.195

Query: Queued: ATACATCTCGTCCACTGCCAGC
Result: -1.42

###

- TARGET UNDER TEST: RASSF5
- EXPERIMENT SUMMARY: pooled miR-30 sensor sort-seq; sequence = guide strand
- APPLIED CONDITIONS: shRNA
RECORDED METRIC: sensor-assay potency score (higher = more potent)
The response must contain the number and no unit.

Query: Looking for the measured sensor-assay potency score (higher = more potent) of TTCTGGAAGAGCACTTGTCCGT , can you help?
Result: -0.498

Query: Param item: TTAAGTGTGAACAACAGGCACC
Result: -0.19

Query: // same read-out, input: TAGCTGTCGATCTTCTGCTTGA
Result: -0.141

Query: Now the same for TTCTCTCGCGTGTTGTAGCTGT
Result: 0.0292

Query: Item: TTTACAGTTAGTGCAGCGCAGC
Result: -1.3

Query: Now this one: TCGCGTGTTGTAGCTGTCGATC
Result: -1.47

Query: Item: TTGTCCGTCCTTGTGTATCCGC
Result: -0.676

###

- TARGET UNDER TEST: ICOS
- EXPERIMENT SUMMARY: pooled miR-30 sensor sort-seq; sequence = guide strand
- APPLIED CONDITIONS: shRNA
Please map values of sensor-assay potency score (higher = more potent) to classes as shown: lo = under -0.8, mid = from -0.8 up to -0.2, hi = -0.2 and over

Query: # bin lookup: classify TAAAATTTGTACACCTCCGTTG by its sensor-assay potency score (higher = more potent)
Result: hi

Query: Further, for TTTTGTCTTAGTGAGATCGCAG ?
Result: mid

Query: Cool, now TTGACTGATACAGTCATTCTTC
Result: hi

Query: Cool, now TAAACTACAACATAATCCCAGT
Result: mid

Query: Now consider TTTAAGAATCTTTCTAGCCAAA .
Result: lo

Query: And the next one, TAGTATGATAGTGAAATGCGGA ?
Result: mid

Query: Same again, this time with TTGTGAATTATTATTCATCTTG
Result: mid

Query: Cool, now TTGTGAAATATAAACATCTCAT
Result: lo
